TARGET_ENTITY: Melanocortin receptor 4 (Homo sapiens)
Sequence (P32245 whole entry): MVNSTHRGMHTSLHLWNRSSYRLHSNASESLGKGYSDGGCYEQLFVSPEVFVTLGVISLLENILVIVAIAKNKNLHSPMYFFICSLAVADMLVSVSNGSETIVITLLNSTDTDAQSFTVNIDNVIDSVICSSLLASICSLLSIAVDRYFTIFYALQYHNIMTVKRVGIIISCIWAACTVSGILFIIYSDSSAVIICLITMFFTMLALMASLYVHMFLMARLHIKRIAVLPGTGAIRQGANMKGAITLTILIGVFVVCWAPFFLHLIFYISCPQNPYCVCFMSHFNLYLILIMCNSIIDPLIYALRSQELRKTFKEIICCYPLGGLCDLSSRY
TEST_METHOD_NOTES: Agonist activity at human melanocortin 4 receptor expressed in HEK293 cells assessed as cAMP accumulation
pEC50: −log10 of the molar value.
MEASURE_NAME: pEC50

>  <INPUT_SMILES>
NC(=O)[C@@H]1CSc2ccc([N+](=O)[O-])cc2C(=O)N[C@@H](Cc2cnc[nH]2)C(=O)N[C@H](Cc2ccccc2)C(=O)N[C@@H](CCCN=C(N)N)C(=O)N[C@@H](Cc2c[nH]c3ccccc23)C(=O)N1

>  <TARGET_ENTITY>
Melanocortin receptor 4 (Homo sapiens)

>  <MEASURED_NUMBER>
7.43

$$$$

* * *

Some compounds, each annotated with its measured Activity.
TARGET_ENTITY: Melanocortin receptor 5 (Homo sapiens)
Sequence (P33032 whole entry): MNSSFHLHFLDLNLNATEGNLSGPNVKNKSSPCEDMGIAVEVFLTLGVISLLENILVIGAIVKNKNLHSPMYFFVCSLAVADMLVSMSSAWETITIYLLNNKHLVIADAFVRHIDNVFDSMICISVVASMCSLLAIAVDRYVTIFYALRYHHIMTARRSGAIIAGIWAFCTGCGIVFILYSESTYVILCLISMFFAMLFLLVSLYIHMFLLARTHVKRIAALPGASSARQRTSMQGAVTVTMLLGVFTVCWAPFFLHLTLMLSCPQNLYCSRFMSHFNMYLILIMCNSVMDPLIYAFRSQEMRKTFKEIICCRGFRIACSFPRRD
TEST_METHOD_NOTES: Agonist activity at human melanocortin 5 receptor expressed in HEK293 cells assessed as cAMP accumulation at 10 uM realtive to MT2
Type: functional, cell-based

>  <INPUT_SMILES>
N=C(N)NCCC[C@@H]1NC(=O)[C@@H](Cc2ccccc2)NC(=O)[C@H](Cc2cnc[nH]2)NC(=O)c2cc([N+](=O)[O-])ccc2SC[C@@H](C(N)=O)NC(=O)[C@@H](Cc2ccc3ccccc3c2)NC1=O

>  <TARGET_ENTITY>
Melanocortin receptor 5 (Homo sapiens)

>  <UNITS_TEXT>
%

>  <Activity>
0

$$$$
>  <INPUT_SMILES>
N=C(N)NCCC[C@@H]1NC(=O)[C@@H](Cc2ccccc2)NC(=O)[C@@H]2CCCN2C(=O)c2cc([N+](=O)[O-])ccc2SC[C@@H](C(N)=O)NC(=O)[C@H](Cc2c[nH]c3ccccc23)NC1=O

>  <TARGET_ENTITY>
Melanocortin receptor 5 (Homo sapiens)

>  <UNITS_TEXT>
%

>  <Activity>
0

$$$$
>  <INPUT_SMILES>
N=C(N)NCCC[C@@H]1NC(=O)[C@@H](Cc2ccccc2)NC(=O)C2(Cc3ccccc3C2)NC(=O)c2cc([N+](=O)[O-])ccc2SC[C@@H](C(N)=O)NC(=O)[C@H](Cc2c[nH]c3ccccc23)NC1=O

>  <TARGET_ENTITY>
Melanocortin receptor 5 (Homo sapiens)

>  <UNITS_TEXT>
%

>  <Activity>
0

$$$$
>  <INPUT_SMILES>
N=C(N)NCCC[C@@H]1NC(=O)[C@@H](Cc2ccccc2)NC(=O)[C@H](Cc2cnc[nH]2)NC(=O)c2cc([N+](=O)[O-])ccc2SC[C@@H](C(N)=O)NC(=O)[C@H](Cc2c[nH]c3ccccc23)NC1=O

>  <TARGET_ENTITY>
Melanocortin receptor 5 (Homo sapiens)

>  <UNITS_TEXT>
%

>  <Activity>
100

$$$$

* * *

TARGET_ENTITY: Melanocortin receptor 3 (Homo sapiens)
Sequence (P41968 whole entry): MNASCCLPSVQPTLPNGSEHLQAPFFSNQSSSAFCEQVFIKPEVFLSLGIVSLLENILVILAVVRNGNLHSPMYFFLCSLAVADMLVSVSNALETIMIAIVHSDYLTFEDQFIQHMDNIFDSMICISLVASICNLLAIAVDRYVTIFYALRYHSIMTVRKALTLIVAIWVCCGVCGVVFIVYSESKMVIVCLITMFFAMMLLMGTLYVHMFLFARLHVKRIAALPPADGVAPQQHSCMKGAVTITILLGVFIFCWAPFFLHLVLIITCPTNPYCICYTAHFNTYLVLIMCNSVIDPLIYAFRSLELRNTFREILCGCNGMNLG
TEST_METHOD_NOTES: Agonist activity at human melanocortin 3 receptor expressed in HEK293 cells assessed as cAMP accumulation
Type: functional, cell-based
MEASURE_NAME: EC50

>  <INPUT_SMILES>
NC(=O)[C@@H]1CSc2ccc([N+](=O)[O-])cc2C(=O)N[C@@H](Cc2cnc[nH]2)C(=O)N[C@H](Cc2ccccc2)C(=O)N[C@@H](CCCN=C(N)N)C(=O)N[C@@H](Cc2c[nH]c3ccccc23)C(=O)N1

>  <RESULT>
2 nM

$$$$
>  <INPUT_SMILES>
N=C(N)NCCC[C@@H]1NC(=O)[C@@H](Cc2ccccc2)NC(=O)[C@@H]2CCCN2C(=O)c2cc([N+](=O)[O-])ccc2SC[C@@H](C(N)=O)NC(=O)[C@H](Cc2c[nH]c3ccccc23)NC1=O

>  <RESULT>
> 1000 nM

$$$$
>  <INPUT_SMILES>
NC(=O)[C@@H]1CSc2ccc([N+](=O)[O-])cc2C(=O)N[C@@H](Cc2cnc[nH]2)C(=O)N[C@H](Cc2ccccc2)C(=O)N[C@@H](CCCN=C(N)N)C(=O)N[C@@H](Cc2ccc3ccccc3c2)C(=O)N1

>  <RESULT>
56 nM

$$$$
>  <INPUT_SMILES>
N=C(N)NCCC[C@@H]1NC(=O)[C@@H](Cc2ccccc2)NC(=O)[C@H](CC2CCCCC2)NC(=O)c2cc([N+](=O)[O-])ccc2SC[C@@H](C(N)=O)NC(=O)[C@H](Cc2c[nH]c3ccccc23)NC1=O

>  <RESULT>
> 4000 nM

$$$$
>  <INPUT_SMILES>
NC(=O)[C@@H]1CSc2ccc([N+](=O)[O-])cc2C(=O)N[C@@H](Cc2cnc[nH]2)C(=O)N[C@H](Cc2ccccc2)C(=O)N[C@@H](CCCN=C(N)N)C(=O)N[C@H](Cc2ccc3ccccc3c2)C(=O)N1

>  <RESULT>
330 nM

$$$$
>  <INPUT_SMILES>
N=C(N)NCCC[C@@H]1NC(=O)[C@@H](Cc2ccccc2)NC(=O)C2(Cc3ccccc3C2)NC(=O)c2cc([N+](=O)[O-])ccc2SC[C@@H](C(N)=O)NC(=O)[C@H](Cc2c[nH]c3ccccc23)NC1=O

>  <RESULT>
> 5000 nM

$$$$

* * *

TARGET_ENTITY: Melanocyte-stimulating hormone receptor (Homo sapiens, UniProt Q01726)
Sequence (Q01726 whole entry, looked up): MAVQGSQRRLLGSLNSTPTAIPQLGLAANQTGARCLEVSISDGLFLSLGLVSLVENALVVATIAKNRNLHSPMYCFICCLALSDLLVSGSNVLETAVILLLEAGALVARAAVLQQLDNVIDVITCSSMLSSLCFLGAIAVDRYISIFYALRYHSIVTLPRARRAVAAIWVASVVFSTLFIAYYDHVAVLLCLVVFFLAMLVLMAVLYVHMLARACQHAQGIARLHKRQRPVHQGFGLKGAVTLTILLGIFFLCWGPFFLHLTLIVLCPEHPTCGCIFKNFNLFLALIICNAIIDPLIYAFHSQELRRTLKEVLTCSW
TEST_METHOD_NOTES: Agonist activity at human melanocortin 1 receptor expressed in HEK293 cells assessed as cAMP accumulation at 10 uM realtive to MT2
Assay type: functional, cell-based
MEASURE_NAME: Activity (%)

>  <INPUT_SMILES>
N=C(N)NCCC[C@@H]1NC(=O)[C@@H](Cc2ccccc2)NC(=O)[C@H]2C[C@@H](O)CN2C(=O)c2cc([N+](=O)[O-])ccc2SC[C@@H](C(N)=O)NC(=O)[C@H](Cc2c[nH]c3ccccc23)NC1=O

>  <TARGET_ENTITY>
Melanocyte-stimulating hormone receptor (Homo sapiens, UniProt Q01726)

>  <MEASURE_NAME>
Activity

>  <MEASURED_NUMBER>
0

$$$$
>  <INPUT_SMILES>
N=C(N)NCCC[C@@H]1NC(=O)[C@@H](Cc2ccccc2)NC(=O)[C@H](CC2CCCCC2)NC(=O)c2cc([N+](=O)[O-])ccc2SC[C@@H](C(N)=O)NC(=O)[C@H](Cc2c[nH]c3ccccc23)NC1=O

>  <TARGET_ENTITY>
Melanocyte-stimulating hormone receptor (Homo sapiens, UniProt Q01726)

>  <MEASURE_NAME>
Activity

>  <MEASURED_NUMBER>
92

$$$$
>  <INPUT_SMILES>
N=C(N)NCCC[C@@H]1NC(=O)[C@@H](Cc2ccccc2)NC(=O)[C@H]2CCCN2C(=O)c2cc([N+](=O)[O-])ccc2SC[C@@H](C(N)=O)NC(=O)[C@H](Cc2c[nH]c3ccccc23)NC1=O

>  <TARGET_ENTITY>
Melanocyte-stimulating hormone receptor (Homo sapiens, UniProt Q01726)

>  <MEASURE_NAME>
Activity

>  <MEASURED_NUMBER>
0

$$$$
>  <INPUT_SMILES>
N=C(N)NCCC[C@@H]1NC(=O)[C@@H](Cc2ccccc2)NC(=O)[C@H](Cc2cnc[nH]2)NC(=O)c2cc([N+](=O)[O-])ccc2SC[C@@H](C(N)=O)NC(=O)[C@@H](Cc2ccccc2)NC1=O

>  <TARGET_ENTITY>
Melanocyte-stimulating hormone receptor (Homo sapiens, UniProt Q01726)

>  <MEASURE_NAME>
Activity

>  <MEASURED_NUMBER>
0

$$$$
>  <INPUT_SMILES>
N=C(N)NCCC[C@@H]1NC(=O)[C@H](Cc2ccc(N)cc2)NC(=O)[C@H](Cc2cnc[nH]2)NC(=O)c2cc([N+](=O)[O-])ccc2SC[C@@H](C(N)=O)NC(=O)[C@H](Cc2c[nH]c3ccccc23)NC1=O

>  <TARGET_ENTITY>
Melanocyte-stimulating hormone receptor (Homo sapiens, UniProt Q01726)

>  <MEASURE_NAME>
Activity

>  <MEASURED_NUMBER>
9

$$$$

* * *

TARGET_ENTITY: Melanocortin receptor 5 (Homo sapiens)
TEST_METHOD_NOTES: Displacement of [125I]-[Nle4, D-Phe7]alpha-MSH from human melanocortin 5 receptor expressed in HEK293 cells
Assay type: cell-based
Some compounds, each annotated with its measured log10 IC50.
MEASURE_NAME: log10 IC50 (log10 of the value in nM)

>  <INPUT_SMILES>
N=C(N)NCCC[C@@H]1NC(=O)[C@@H](Cc2ccccc2)NC(=O)C2(Cc3ccccc3C2)NC(=O)c2cc([N+](=O)[O-])ccc2SC[C@@H](C(N)=O)NC(=O)[C@H](Cc2c[nH]c3ccccc23)NC1=O

>  <log10 IC50>
2.75

$$$$
>  <INPUT_SMILES>
NC(=O)[C@@H]1CSc2ccc([N+](=O)[O-])cc2C(=O)N[C@@H](Cc2cnc[nH]2)C(=O)N[C@H](Cc2ccc3ccccc3c2)C(=O)N[C@@H](CCCN=C(N)N)C(=O)N[C@@H](Cc2c[nH]c3ccccc23)C(=O)N1

>  <log10 IC50>
2.88

$$$$
>  <INPUT_SMILES>
N=C(N)NCCC[C@@H]1NC(=O)[C@@H](Cc2ccccc2)NC(=O)[C@@H]2CCCN2C(=O)c2cc([N+](=O)[O-])ccc2SC[C@@H](C(N)=O)NC(=O)[C@H](Cc2c[nH]c3ccccc23)NC1=O

>  <log10 IC50>
1.76

$$$$
>  <INPUT_SMILES>
NC(=O)[C@@H]1CSc2ccc([N+](=O)[O-])cc2C(=O)N[C@@H](Cc2cnc[nH]2)C(=O)N[C@H](Cc2ccccc2)C(=O)N[C@@H](CCCN=C(N)N)C(=O)N[C@@H](Cc2c[nH]c3ccccc23)C(=O)N1

>  <log10 IC50>
2.28

$$$$
>  <INPUT_SMILES>
NC(=O)[C@@H]1CSc2ccc([N+](=O)[O-])cc2C(=O)N[C@@H](Cc2cnc[nH]2)C(=O)N[C@H](Cc2ccccc2)C(=O)N[C@@H](CCCN=C(N)N)C(=O)N[C@@H](Cc2ccc3ccccc3c2)C(=O)N1

>  <log10 IC50>
2.53

$$$$
>  <INPUT_SMILES>
N=C(N)NCCC[C@@H]1NC(=O)[C@@H](Cc2ccccc2)NC(=O)[C@H](CC2CCCCC2)NC(=O)c2cc([N+](=O)[O-])ccc2SC[C@@H](C(N)=O)NC(=O)[C@H](Cc2c[nH]c3ccccc23)NC1=O

>  <log10 IC50>
1.58

$$$$
